- Tested on: H1299 p53 Y220C
- assay-summary: Cell Proliferation Assay (CellTiter-Glo, CTG), H1299 p53 Y220C (NClH1299-inducible p53 Y220C)
- Format: cell-based
- recorded-conditions: Homo sapiens, NCI-H1299, 120 h, CellTiter-Glo, H1299 p53 Y220C, 5 days
Structures can show the parent of a compound that is named as a salt.
Please respond with reported IC50 for every item in the list.

Data request: What does the data say about its IC50? Entry: CNC(=O)c1ccc(NCC#Cc2nc3c(N[C@@H]4CCN(C)C[C@@H]4F)cccn3c2SC(F)(F)F)c(OC)c1 [Example 28, formic acid salt]
Data returned: < 750 nM

Data request: Any idea what its IC50 is? The compound is CNC(=O)c1ccc(NCC#Cc2nc3c(N[C@@H]4CCN(C)C[C@@H]4F)cccn3c2CC(F)(F)F)c(OC)n1
Data returned: < 750 nM

Data request: Sample COc1cc(C(N)=O)ccc1NCC#Cc1nc2c(N[C@@H]3CCN(C)C[C@@H]3F)cccn2c1SC(F)(F)F — what was its IC50?
Data returned: < 750 nM

Data request: What IC50 value was documented for this compound, CNC(=O)c1ccc(NCC#Cc2cc3c(N[C@@H]4CCN(C)C[C@@H]4F)cccn3c2SC(F)F)c(OC)c1 ?
Data returned: < 750 nM

Data request: Query: IC50; subject: CN1CC[C@@H](Nc2cccn3c(CC(F)(F)F)c(C#CCCN)nc23)[C@@H](F)C1
Data returned: > 3000 nM

Data request: Could you tell me which IC50 is on file for CNC(=O)c1ccc(NCC#Cc2nc3c(NC4CCN(C)CC4)cc(NC(=O)CCl)cn3c2CC(F)(F)F)c(OC)c1 ?
Data returned: > 3000 nM

Data request: Dear colleague, I am looking for the recorded IC50 of the following compound: CNC(=O)c1ccc(NCC#Cc2nc3c(N[C@@H]4CCN(C)C[C@@H]4F)cccn3c2CC(F)(F)F)c(C(F)(F)F)c1
Data returned: > 3000 nM

Data request: What IC50 value was documented for this compound, CNC(=O)c1ccc(NCC#Cc2nc3c(N[C@@H]4CCN(C)C[C@@H]4F)cccn3c2CC(F)(F)F)c(OCC(F)(F)F)c1 ?
Data returned: < 750 nM

Data request: May I ask what IC50 has been recorded for CNC(=O)c1ccc(NCC#Cc2nc3c(N[C@H]4CCNC(=O)C4)cccn3c2SC(F)(F)F)c(OC)c1 ?
Data returned: 1500 to 3000 nM

Data request: Fill in the blank: the reported IC50 of C=C(F)C(=O)Nc1cc(NC2CCN(C)CC2)c2nc(C#CCNc3ccc(C(=O)NC)cc3OC)c(CC(F)(F)F)n2c1 is ____.
Data returned: > 3000 nM

Data request: Value lookup for IC50; key = COc1cc(S(C)(=O)=O)ccc1NCC#Cc1nc2c(NC3CCN(C)CC3)cc(N)cn2c1CC(F)(F)F
Data returned: > 3000 nM
